Assay: Inhibition of CDC42
readout_label: pIC50
Worth noting: pIC50 values are minus log10 of concentrations stated in mol/L.

Task: Query (compound): `O=C(Nc1cc2cc[nH]c(=O)c2cc1Cl)[C@@H]1CNC[C@H]1c1ccc(Cl)cc1` ; field requested: pIC50
Result: 7.27
